- system-under-test: Solute carrier family 2, facilitated glucose transporter member 1 (Homo sapiens)
- measurement-notes: ST_JUDE_LEISH: Cytotoxicity at 2uM final concentration against transgenic Leishmania Mexicana promastigotes LmGLUT1 that are glucose transport deficient and complemented with the human glucose transporter GLUT1. Activity is measured by DNA content using SYBR green in vitro
- Assay type: functional
# Lookup of reported inhibition keyed by entry
Answer with a number only, understood to be in %.

See these solved cases before continuing.
| compound | unit-text | inhibition |
| --- | --- | --- |
| Cc1noc(C)c1-c1cccc(CNCc2ccc(-c3cccc(-c4nc5cc(F)ccc5[nH]4)c3)cc2)c1 | % | 11.3 |
| O=C(NCC1CCC(C(=O)NCCc2ccc(Cl)c(Cl)c2)CC1)c1ccc(O)c(-c2ccc(Cl)c(Cl)c2)c1 (stereo not given) | % | -0.17 |
| COc1ccc(CNC(=O)c2cnc3c(O)cccc3c2Nc2cccc(NC(=O)c3ccc(F)cc3)c2)cc1 | % | 76 |
| C/C(=C\C(=O)NC1CC1)c1ccccc1OCc1ccccc1 | % | 0.29 |

Alright, here's another compound for you.
In plain terms, COC(=O)CCCCOc1c(OC)cc(Cc2cnc(N)nc2N)cc1OC has a documented inhibition of 11.2

====

- system-under-test: Solute carrier family 2, facilitated glucose transporter member 1 (Homo sapiens)
- measurement-notes: ST_JUDE_LEISH: Cytotoxicity at 2uM final concentration against transgenic Leishmania Mexicana promastigotes LmGLUT1 that are glucose transport deficient and complemented with the human glucose transporter GLUT1. Activity is measured by DNA content using SYBR green in vitro
- Type: functional
Given measured inhibition, output 1 if it is greater than or equal to 2% and -1 if not.

# input Does the reported inhibition for O=S(=O)(c1ccc(OCc2ccc(Cl)cc2)cc1)c1cc2c(cc1OCc1ccccc1)CCN(CC1CC1)CC2 fall at or above the 2% mark?
# output -1

# input Quick check: does COc1cc(C2=NN(S(=O)(=O)c3c(Cl)cc(Cl)cc3Cl)CCCC2)ccc1Cl have inhibition greater than or equal to 2%?
# output 1

====

- system-under-test: Glucose transporter (Leishmania mexicana)
- measurement-notes: ST_JUDE_LEISH: Cytotoxicity at 2uM final concentration against transgenic Leishmania Mexicana promastigotes LmGT2 that are glucose transport deficient and complemented with the L. Mexicana glucose transporter 2. Activity is measured by DNA content using SYBR green in vitro
- Format: functional
observation-type: inhibition
For clarity, give the value followed by its unit.

| molecule | inhibition |
| --- | --- |
| Fc1ccc(C2N=C(SCCSC3=NC(c4ccc(F)cc4)C(c4ccc(F)cc4)N3)NC2c2ccc(F)cc2)cc1 (centres undefined) | 3.33% |
| Nc1nccc2ccc(-c3ccc(NC(=O)Nc4cc(C(F)(F)F)ccc4F)cc3)cc12 | -0.4% |

Next:
Looking up Cc1ccc(C(=O)Nc2ccc(Cl)c(N3CCN(CCc4ccccc4)CC3)c2)cc1 , I found its inhibition recorded as 6.51%

====

- system-under-test: Hexose transporter 1 (Plasmodium falciparum)
- measurement-notes: ST_JUDE_LEISH: Cytotoxicity at 2uM final concentration against transgenic Leishmania Mexicana promastigotes LmPfHT that are glucose transport deficient and complemented with the Plasmodium falciparum hexose transporter. Activity is measured by DNA content using SYBR green in vitro
- Assay type: functional
This section presents compounds with their documented inhibition values.
Record the value in %, omitting the unit from your answer.

Examples with their reported inhibition follow.
| record-smiles | observation-type | measured-number |
| --- | --- | --- |
| CCCCCCCC(=O)N[C@@H](Cc1ccccc1)C(=O)N[C@H](C(=O)O)C(C)C | inhibition | 1.23 |
| O=C(/C=C/c1ccc(Cl)c(Cl)c1)NCCCCCN1CCC(NC(=O)Nc2cc(F)cc(F)c2)CC1 | inhibition | 1.46 |

Looking up Cc1ccc(NC(=O)N2CCCN(CCCCCNC(=O)/C=C/c3ccc(Cl)c(Cl)c3)CC2)cc1 , I see its inhibition listed as -0.68

inhibition measured on CN1CCN(CCCNc2ncc3c(-c4ccc(NC(=O)Nc5cc(C(F)(F)F)ccc5F)c(F)c4)nn(C)c3n2)CC1 = -3.33

Reported inhibition ( Cc1cc(F)ccc1-c1nc(Nc2ccncc2)c2ccn(C)c2n1 ) = 2.6

====

- system-under-test: Glucose transporter (Leishmania mexicana)
- measurement-notes: ST_JUDE_LEISH: Cytotoxicity at 2uM final concentration against transgenic Leishmania Mexicana promastigotes LmGT2 that are glucose transport deficient and complemented with the L. Mexicana glucose transporter 2. Activity is measured by DNA content using SYBR green in vitro
- Type: functional
Overview of reported inhibition across a group of compounds:
Respond numerically; units are % and should not be typed.

Query Cc1cc(C(=O)CSc2nc3ccccc3n2-c2ccccc2)c(C)n1C1CCS(=O)(=O)C1 (stereo not given) yields inhibition of 0.44

Lab note: Cc1ccc(NC(=O)c2ccc(C(=O)NC3CCN(CC4CCCCC4)CC3)cc2)cc1 gave inhibition of 1.65

The reported inhibition of the compound COc1cc(CC2c3cc(O)c(Cl)cc3CCN2C)c(OC)cc1C (stereo not given) was 5.31

Summary for this compound, CCCc1ccc(S(=O)(=O)NC2CCN(c3ccnc(Nc4ccc(F)cc4)n3)C2)cc1 (stereo not given) : inhibition is 1.48

Entry Cn1cc(CCNc2ccnc(N3CCC(c4ncc[nH]4)CC3)n2)c2ccccc21 — recorded inhibition = -2.28

====

- system-under-test: Glucose transporter (Leishmania mexicana) (UniProt O61059)
- measurement-notes: ST_JUDE_LEISH: Cytotoxicity at 2uM final concentration against transgenic Leishmania Mexicana promastigotes LmGT2 that are glucose transport deficient and complemented with the L. Mexicana glucose transporter 2. Activity is measured by DNA content using SYBR green in vitro
- Type: functional
inhibition: recorded values
Return type: number; implicit unit %.

| record-smiles | inhibition / % |
| --- | --- |
| COc1cccc(CCc2c(CCNCCCCCCNCCc3ccccc3)ccc(OC)c2OC)c1 | 106 |
| CCOc1ccc2[nH]c(C)cc(=NN=Cc3cccnc3)c2c1 | 7.76 |
| CSc1ccc2ccccc2c1CCNCCCCNCCc1c(SC)ccc2ccccc12 | 81.6 |

molecule CC(C)N(CCOc1ccc2c(c1)N(C(=O)Nc1ccc(Cl)c(Cl)c1)CC2)C(C)C , inhibition observed: -4.18

Summary for this molecule, O=C(Nc1cccc(-c2cccc(-c3nc4cc(C(F)(F)F)ccc4[nH]3)c2)c1)c1cccnc1Cl : inhibition is -2.92

The reported value for Cc1cc(NCCCCCCN)nc(Nc2ccc(Cl)cc2)n1 in terms of inhibition is -0.67

# molecule Cc1cccn2c(=O)c3cc(C(=O)NCCc4ccccc4)c(=N)n(CCCOC(C)C)c3nc12 ; its inhibition = 2.98

Entry CCCCCn1c(Sc2ccc(C#N)c([N+](=O)[O-])c2)nnc1-c1cc(OC)cc(OC)c1 — recorded inhibition = 9.25

Looking up O=C(NC1CCCCCC1)[C@@H]1CCCN1C(=O)c1ccc(O)c(-c2ccc(Cl)c(Cl)c2)c1 , I see its inhibition listed as -1.06

inhibition recorded for this molecule, CC[C@H](C)CNC(=O)c1cccc(-c2ccc(CN3CCC(N4CCCC4)CC3)cc2)n1 , is 1.28

====

- system-under-test: Solute carrier family 2, facilitated glucose transporter member 1 (Homo sapiens) (UniProt P11166)
- Sequence (P11166 whole entry): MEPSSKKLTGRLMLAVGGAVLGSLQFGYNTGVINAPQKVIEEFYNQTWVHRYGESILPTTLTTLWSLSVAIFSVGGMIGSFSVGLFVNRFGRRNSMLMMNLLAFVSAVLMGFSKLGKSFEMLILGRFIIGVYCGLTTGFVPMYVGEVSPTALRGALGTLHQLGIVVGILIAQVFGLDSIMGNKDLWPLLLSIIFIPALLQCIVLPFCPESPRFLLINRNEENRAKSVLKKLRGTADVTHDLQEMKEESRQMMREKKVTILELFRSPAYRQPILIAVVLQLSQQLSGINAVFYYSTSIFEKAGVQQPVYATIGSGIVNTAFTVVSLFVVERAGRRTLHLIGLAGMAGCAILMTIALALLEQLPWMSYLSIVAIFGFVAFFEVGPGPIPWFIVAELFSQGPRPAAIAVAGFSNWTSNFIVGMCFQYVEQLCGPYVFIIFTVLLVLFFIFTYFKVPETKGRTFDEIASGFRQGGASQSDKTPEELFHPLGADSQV
- measurement-notes: ST_JUDE_LEISH: Cytotoxicity at 2uM final concentration against transgenic Leishmania Mexicana promastigotes LmGLUT1 that are glucose transport deficient and complemented with the human glucose transporter GLUT1. Activity is measured by DNA content using SYBR green in vitro
- Type: functional
The following compounds are shown together with reported inhibition values.
Your answer should be a plain number; it is taken to be in %.

| compound | measured-number |
| --- | --- |
| CN(C)CCN(Cc1ccc(-c2ccc(CNCCc3ccccc3)cc2)nc1)C(=O)CCC1CCCC1 | 3.68 |
| COc1ccc(CCNC(=O)c2ccccc2O)cc1-c1ccc(C(C)(C)C)cc1 | 4.03 |
| CCC(C)NS(=O)(=O)c1ccc2nc(Nc3ccc(C)cc3)n(C3CCCCC3)c2c1 (stereo not given) | 5.26 |

So for COc1ccccc1N1CCN(Cc2c(O)ccc3cc(Br)ccc23)CC1 , the logged inhibition turned out to be 5.54

The compound O=C(Nc1ccc(OC2CCN(Cc3ccco3)CC2)c(Cl)c1)c1ccc2ncccc2c1 showed inhibition equal to 4.38

====

- system-under-test: Glucose transporter (Leishmania mexicana)
- measurement-notes: ST_JUDE_LEISH: Cytotoxicity at 2uM final concentration against transgenic Leishmania Mexicana promastigotes LmGT2 that are glucose transport deficient and complemented with the L. Mexicana glucose transporter 2. Activity is measured by DNA content using SYBR green in vitro
- Type: functional
Readings of inhibition for the listed molecules
Respond with the bare value in %.

Field: example entries. Status: answers known.
| record-smiles | unit-text | measured-number |
| --- | --- | --- |
| Cc1cc(N[C@@H](CC(C)C)C(=O)NCc2cccc(F)c2)nc(NCCc2ccccc2)n1 | % | 2.16 |
| Cc1cc(NCCc2ccc(O)cc2)nc(NCC(c2ccccc2)c2ccccc2)n1 | % | 5.19 |
| COc1cc2nc(-c3ccccc3)nc(N3CCN(CC(=O)N4CCCC4)CC3)c2cc1OC | % | 4.86 |
| COc1c(C2CCN(CCCCNC(=O)c3ccc(-c4ccc(C#N)cc4)nc3)CC2)ccc2c1CCCC2 | % | 0.52 |
| FC(F)(F)c1ccc2[nH]c(-c3ccc(-c4cccc(CN5CCC(CCN6CCCCC6)CC5)c4)cc3)nc2c1 | % | 2.53 |

Data point: COc1ccc(-c2cc(C(=O)N[C@@H](CC3CCCCC3)C(=O)NCCN3CCCCC3)ccc2O)cc1 ; inhibition = -0.35

Data point: Clc1ccc2c(N3CCCNCC3)ccnc2c1 ; inhibition = 4.48

inhibition for Cc1cc(Cl)c(Cl)cc1NC(=O)Nc1cccc(C(F)(F)F)c1 is -0.28

What the record says about CN1CCN(Cc2cccc(-c3ccc4c(Nc5ccc(Oc6ccccc6)cc5)ccnc4c3)c2)CC1 : inhibition is 18.6

These measurements were taken from ChEMBL document CHEMBL3433997.
